Each record here notes measured pIC50.
- target_desc: CETP (Homo sapiens)
- Construct: from tissue; host or cells: human plasma from healthy men
- assay_comment: Inhibitory activity against CETP in human plasma (Roar CETP activity kit, fluorescence)
- Type: biochemical
- test_settings: plasma from healthy men diluted 1:10 in assay buffer, 37° C., 3 hrs, fluorescence 465/535 nm; read-out: IC50, Inhibition of CETP Activity in Human Plasma
pIC50: −log10 of the molar value.
measurement_type: pIC50

In [3]: df
Out[3]:
                           molecular_string  recorded_value
0  CCN(c1ncc(-c2csnc2C)cc1CN1C(=O)O[C@H](c2cc(C(F)(F)F)cc(C(F)(F)F)c2)[C@@H]1C)C1CCCCC1            8.25
1  CCN(c1ncc(-c2cscc2C)cc1CN1C(=O)O[C@H](c2cc(C(F)(F)F)cc(C(F)(F)F)c2)[C@@H]1C)C1CCCCC1            7.52
2  CCN(c1ncc(-c2c(N)noc2C)cc1CN1C(=O)O[C@H](c2cc(C(F)(F)F)cc(C(F)(F)F)c2)[C@@H]1C)C1CCCCC1            7.50

====

- target_desc: CETP (Homo sapiens)
- Construct: from tissue; host or cells: human plasma from healthy men
- assay_comment: Inhibitory activity against CETP in human plasma (Roar CETP activity kit, fluorescence)
- Format: biochemical
- test_settings: plasma from healthy men diluted 1:10 in assay buffer, 37° C., 3 hrs, fluorescence 465/535 nm; read-out: IC50, Inhibition of CETP Activity in Human Plasma
In plain terms, low IC50, meaning strictly below 60 nM, gives satisfied, and everything else gives not satisfied.

In [3]: df
Out[3]:
                                   molecule          target_desc            cat
0  CCOc1cccc(-c2cnc(N(CC)C3CCOCC3)c(CN3C(=O)O[C@H](c4cc(C(F)(F)F)cc(C(F)(F)F)c4)[C@@H]3C)c2)c1  CETP (Homo sapiens)  not satisfied
1  C[C@H]1[C@@H](c2cc(C(F)(F)F)cc(C(F)(F)F)c2)OC(=O)N1Cc1cc(C(F)(F)F)cnc1N(CCO)C1CCOCC1  CETP (Homo sapiens)  not satisfied
2  CCOC(=O)c1c(C)noc1-c1cnc(N(CC)C2CCCCC2)c(CN2C(=O)O[C@H](c3cc(C(F)(F)F)cc(C(F)(F)F)c3)[C@@H]2C)c1  CETP (Homo sapiens)  not satisfied
3  CCN(C[C@H]1CC[C@H](CC(=O)O)CC1)c1ncc(-c2ccccc2)nc1CN1C(=O)OC(c2cc(C(F)(F)F)cc(C(F)(F)F)c2)[C@@H]1C (stereo partly drawn)  CETP (Homo sapiens)      satisfied
4  CCN(CC1CCC(CC(=O)O)CC1)c1ncc(-c2nccs2)nc1CN1C(=O)OC(c2cc(C(F)(F)F)cc(C(F)(F)F)c2)C1C (stereo not drawn)  CETP (Homo sapiens)      satisfied
5  CCN(C[C@H]1CC[C@H](CC(=O)O)CC1)c1ncc(-c2cccnc2)nc1CN1C(=O)OC(c2cc(C(F)(F)F)cc(C(F)(F)F)c2)[C@@H]1C (stereo partly drawn)  CETP (Homo sapiens)  not satisfied

====

- target_desc: CETP (Homo sapiens, UniProt P11597)
- Sequence (P11597 18-493): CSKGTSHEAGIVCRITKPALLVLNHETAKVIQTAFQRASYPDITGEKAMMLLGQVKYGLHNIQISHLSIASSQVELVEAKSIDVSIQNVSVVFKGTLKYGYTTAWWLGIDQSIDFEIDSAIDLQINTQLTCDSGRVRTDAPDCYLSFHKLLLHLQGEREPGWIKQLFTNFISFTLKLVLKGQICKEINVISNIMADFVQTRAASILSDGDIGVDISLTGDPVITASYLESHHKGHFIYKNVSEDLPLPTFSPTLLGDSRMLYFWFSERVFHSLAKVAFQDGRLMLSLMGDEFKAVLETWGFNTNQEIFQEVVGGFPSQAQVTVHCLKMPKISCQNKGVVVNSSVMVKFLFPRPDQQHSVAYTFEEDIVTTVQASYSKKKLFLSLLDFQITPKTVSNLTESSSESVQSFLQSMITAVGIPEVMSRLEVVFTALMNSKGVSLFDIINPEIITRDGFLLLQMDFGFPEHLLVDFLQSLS
- assay_comment: Inhibitory activity against CETP in human plasma (Roar CETP activity kit, fluorescence)
- test_settings: plasma from healthy men diluted 1:10 in assay buffer, 37° C., 3 hrs, fluorescence 465/535 nm; read-out: IC50, Inhibition of CETP Activity in Human Plasma
Each record here notes measured log10 IC50.
measurement_type: log10 IC50 (log10 of the value in µM)

>>> df
                                   compound                          target_desc  recorded_value
0  C[C@H]1[C@@H](c2cc(C(F)(F)F)cc(C(F)(F)F)c2)OC(=O)N1Cc1cc(C(F)(F)F)cnc1N(C1CCOCC1)C1CC1  CETP (Homo sapiens, UniProt P11597)           -1.22
1  Cc1noc(C)c1-c1cnc(N2CC(C)OC(C)C2)c(CN2C(=O)O[C@@H](c3cc(C(F)(F)F)cc(C(F)(F)F)c3)[C@@H]2C)n1 (stereo partly drawn)  CETP (Homo sapiens, UniProt P11597)           -1.08
2  CCCN(CC1CCC(CC(=O)O)CC1)c1ncc(C2CC2)nc1CN1C(=O)OC(c2cc(C(F)(F)F)cc(C(F)(F)F)c2)C1C (stereo not drawn)  CETP (Homo sapiens, UniProt P11597)           -1.39
3  CCN(c1ncc(-c2ccc(C#N)s2)cc1CN1C(=O)O[C@@H](c2cc(C(F)(F)F)cc(C(F)(F)F)c2)[C@@H]1C)C1CCCCC1  CETP (Homo sapiens, UniProt P11597)           -2.17
4  CCN(c1ncc(-c2cscn2)cc1CN1C(=O)O[C@H](c2cc(C(F)(F)F)cc(C(F)(F)F)c2)[C@@H]1C)C1CCCCC1  CETP (Homo sapiens, UniProt P11597)           -1.58
5  CCN(c1ncc(-c2c[nH]nc2C(F)(F)F)cc1CN1C(=O)O[C@H](c2cc(C(F)(F)F)cc(C(F)(F)F)c2)[C@@H]1C)C1CCCCC1  CETP (Homo sapiens, UniProt P11597)           -0.77

====

- target_desc: CETP (Homo sapiens, UniProt P11597)
- assay_comment: Inhibitory activity against CETP in human plasma (Roar CETP activity kit, fluorescence)
- test_settings: plasma from healthy men diluted 1:10 in assay buffer, 37° C., 3 hrs, fluorescence 465/535 nm; read-out: IC50, Inhibition of CETP Activity in Human Plasma
Each record here notes measured IC50.

molecule	target_desc	unit_spec	IC50
CCN(c1ncc(N2CCC2)cc1CN1C(=O)O[C@H](c2cc(C(F)(F)F)cc(C(F)(F)F)c2)[C@@H]1C)C1CCOCC1 [Example 43]	CETP (Homo sapiens, UniProt P11597)	µM	0.0079
CCN(c1ncc(-c2c(C)noc2C)cc1CN1C(=O)O[C@H](c2cc(C(F)(F)F)cc(C(F)(F)F)c2)[C@@H]1C)C1CCOCC1 [Example 51]	CETP (Homo sapiens, UniProt P11597)	µM	0.0127
CCN(c1ncc(C(F)(F)F)cc1CN1C(=O)O[C@H](c2cc(C(F)(F)F)cc(C(F)(F)F)c2)[C@@H]1C)C1CCN(S(C)(=O)=O)CC1 [Example 32]	CETP (Homo sapiens, UniProt P11597)	µM	0.41
CCN(c1ncc(-c2cccc(F)c2)cc1CN1C(=O)O[C@H](c2cc(C(F)(F)F)cc(C(F)(F)F)c2)[C@@H]1C)C1CCOCC1 [Example 47]	CETP (Homo sapiens, UniProt P11597)	µM	0.045
CCN(C[C@H]1CC[C@H](CC(=O)O)CC1)c1ncc(-c2cscn2)nc1CN1C(=O)OC(c2cc(C(F)(F)F)cc(C(F)(F)F)c2)[C@@H]1C (stereo partly drawn) [Example 113]	CETP (Homo sapiens, UniProt P11597)	µM	0.016
CCCN(C[C@H]1CC[C@H](CC(=O)O)CC1)c1ncc(N2CCCC2)nc1CN1C(=O)OC(c2cc(C(F)(F)F)cc(C(F)(F)F)c2)[C@@H]1C (stereo partly drawn) [Example 124]	CETP (Homo sapiens, UniProt P11597)	µM	0.00713

====

- target_desc: CETP (Homo sapiens, UniProt P11597)
- Sequence (P11597 18-493): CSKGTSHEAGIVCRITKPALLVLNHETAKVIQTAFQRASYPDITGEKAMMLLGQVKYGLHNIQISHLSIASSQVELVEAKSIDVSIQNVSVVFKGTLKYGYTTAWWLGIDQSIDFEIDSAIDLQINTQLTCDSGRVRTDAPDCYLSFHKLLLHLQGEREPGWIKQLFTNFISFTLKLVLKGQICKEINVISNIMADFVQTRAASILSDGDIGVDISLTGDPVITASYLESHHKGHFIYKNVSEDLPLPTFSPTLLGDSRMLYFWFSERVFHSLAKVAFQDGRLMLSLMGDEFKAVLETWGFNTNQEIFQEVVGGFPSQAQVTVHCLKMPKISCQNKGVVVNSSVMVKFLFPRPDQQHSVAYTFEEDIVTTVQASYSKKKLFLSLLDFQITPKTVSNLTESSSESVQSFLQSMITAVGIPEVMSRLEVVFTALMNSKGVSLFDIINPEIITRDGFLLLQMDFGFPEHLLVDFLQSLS
- assay_comment: Inhibitory activity against CETP in human plasma (Roar CETP activity kit, fluorescence)
- test_settings: plasma from healthy men diluted 1:10 in assay buffer, 37° C., 3 hrs, fluorescence 465/535 nm; read-out: IC50, Inhibition of CETP Activity in Human Plasma
pIC50: −log10 of the molar value.

compound	pIC50
CCN(c1ncc(-c2cccn2C(=O)OC(C)(C)C)cc1CN1C(=O)O[C@@H](c2cc(C(F)(F)F)cc(C(F)(F)F)c2)[C@@H]1C)C1CCCCC1 [Example 76]	7.06
CCN(c1ncc(C#N)cc1CN1C(=O)O[C@H](c2cc(C(F)(F)F)cc(C(F)(F)F)c2)[C@@H]1C)C1CCCCC1 [Example 54]	7.72
Cc1noc(C)c1-c1cnc(N2CCCCC2)c(CN2C(=O)O[C@@H](c3cc(C(F)(F)F)cc(C(F)(F)F)c3)[C@@H]2C)n1 [Example 98]	8.58
Cc1noc(C)c1-c1cnc(N(C)C2CCCCC2)c(CN2C(=O)O[C@H](c3cc(C(F)(F)F)cc(C(F)(F)F)c3)[C@@H]2C)c1 [Example 57]	7.78
Cc1noc(C)c1-c1cnc(N2CCCC(C(F)(F)F)C2)c(CN2C(=O)O[C@@H](c3cc(C(F)(F)F)cc(C(F)(F)F)c3)[C@@H]2C)n1 (stereo partly drawn) [Example 100]	7.81
CCN(c1ncccc1CN1C(=O)O[C@H](c2cc(C(F)(F)F)cc(C(F)(F)F)c2)[C@@H]1C)C1CCOCC1 [Example 52]	7.13
CCN(c1ncc(N2CCCC2C)cc1CN1C(=O)O[C@H](c2cc(C(F)(F)F)cc(C(F)(F)F)c2)[C@@H]1C)C1CCCCC1 (stereo partly drawn) [Example 89]	8.15
CCN(c1ncc(-c2ccc(C)s2)cc1CN1C(=O)O[C@H](c2cc(C(F)(F)F)cc(C(F)(F)F)c2)[C@@H]1C)C1CCCCC1 [Example 79]	7.61
CCN(c1ncc(N2CCCC2C(F)(F)F)cc1CN1C(=O)O[C@H](c2cc(C(F)(F)F)cc(C(F)(F)F)c2)[C@@H]1C)C1CCCCC1 (stereo partly drawn) [Example 92]	7.32
CCN(c1ncc(-c2sccc2C)cc1CN1C(=O)O[C@H](c2cc(C(F)(F)F)cc(C(F)(F)F)c2)[C@@H]1C)C1CCCCC1 [Example 78]	7.75
CCN(c1ncc(-c2cc(C(F)(F)F)nn2C)cc1CN1C(=O)O[C@H](c2cc(C(F)(F)F)cc(C(F)(F)F)c2)[C@@H]1C)C1CCCCC1 [Example 60]	7.46
CCN(c1ncc(-c2c(C)noc2C)cc1CN1C(=O)O[C@H](c2cc(C(F)(F)F)cc(C(F)(F)F)c2)[C@@H]1C)C1CCCCC1 [Example 58]	8.57
CCNC1CCC(N(CC)c2ncc(C(F)(F)F)cc2CN2C(=O)O[C@H](c3cc(C(F)(F)F)cc(C(F)(F)F)c3)[C@@H]2C)CC1 (stereo partly drawn) [Example 23]	7.35
C[C@H]1C(c2cc(C(F)(F)F)cc(C(F)(F)F)c2)OC(=O)N1Cc1nc(C2CCC2)cnc1N(C)C[C@H]1CC[C@H](CC(=O)O)CC1 (stereo partly drawn) [Example 128]	7.62
CCN(CC1CCC(CCO)CC1)c1ncc(N2CCCC2)nc1CN1C(=O)OC(c2cc(C(F)(F)F)cc(C(F)(F)F)c2)C1C (stereo not drawn) [Example 131]	8.30
CCCN(C[C@H]1CC[C@H](CC(=O)O)CC1)c1ncc(-c2c(C)noc2C)nc1CN1C(=O)OC(c2cc(C(F)(F)F)cc(C(F)(F)F)c2)[C@@H]1C (stereo partly drawn) [Example 123]	8.14
CCN(C[C@H]1CC[C@H](CC(=O)O)CC1)c1ncc(-c2ccc(C#N)cc2)nc1CN1C(=O)OC(c2cc(C(F)(F)F)cc(C(F)(F)F)c2)[C@@H]1C (stereo partly drawn) [Example 117]	7.93
CCN(c1ncc(N2CCCCC2)cc1CN1C(=O)O[C@H](c2cc(C(F)(F)F)cc(C(F)(F)F)c2)[C@@H]1C)C1CCOCC1 [Example 44]	7.24
CCN(c1ncc(C(F)(F)F)cc1CN1C(=O)O[C@H](c2cc(C(F)(F)F)cc(C(F)(F)F)c2)[C@@H]1C)C1CCOC1 (stereo partly drawn) [Example 2]	6.84
CCN(c1ncccc1CN1C(=O)O[C@H](c2cc(C(F)(F)F)cc(C(F)(F)F)c2)[C@@H]1C)C1CCOCC1 [Example 14]	7.01
CCN(c1ncc(N2CCCC2)cc1CN1C(=O)O[C@H](c2cc(C(F)(F)F)cc(C(F)(F)F)c2)[C@@H]1C)C1CCCCC1 [Example 88]	7.97
CCN(c1ncc(C(F)(F)F)cc1CN1C(=O)O[C@H](c2cc(C(F)(F)F)cc(C(F)(F)F)c2)[C@@H]1C)C1CCN(CC(=O)O)CC1 [Example 39]	6.31
CCN(c1ncc(-c2cccc(C)c2)cc1CN1C(=O)O[C@H](c2cc(C(F)(F)F)cc(C(F)(F)F)c2)[C@@H]1C)C1CCOCC1 [Example 46]	7.55
CCN(C[C@H]1CC[C@H](CC(=O)O)CC1)c1ncc(-c2sccc2C)nc1CN1C(=O)OC(c2cc(C(F)(F)F)cc(C(F)(F)F)c2)[C@@H]1C (stereo partly drawn) [Example 111]	8.51

src = patent US9533977B2
